Parameter: efficacy (kill in %). Scope: all listed entries.
- System: Ctenocephalides felis
- PROTOCOL DESCRIPTION: Ctenocephalides felis oral test
- Assay type: in vivo
- TEST CONTEXT: application rate 100 ppm in citrated cattle blood; after 2 days
// unit must come after the numeric part

Cn1nc(C(F)(F)C(F)(F)F)c(C(F)(F)F)c1-n1cc(-c2ccc(F)c(NC(=O)c3ccc(Cl)c(F)c3)c2)cn1 [Example 1-096]
100%
Cc1occc1C(=O)Nc1cc(-c2cnn(-c3c(C(F)(F)F)c(C(F)(F)C(F)(F)F)nn3C)c2)ccc1F [Example 1-067]
100%
Cn1nc(C(F)(F)C(F)(F)F)c(C(F)(F)F)c1-n1cc(-c2ccc(F)c(NC(=O)c3ncccn3)c2)cn1 [Example 1-036]
100%
Cc1ccc(-c2cnn(-c3c(C(F)(F)F)c(C(F)(F)C(F)(F)F)nn3C)c2)cc1NC(=O)c1ccncc1 [Example 1-040]
100%
Cn1nc(C(F)(F)C(F)(F)F)c(C(F)(F)F)c1-n1cc(-c2ccc(F)c(NC(=O)c3ccc(F)cc3)c2)cn1 [Example 1-027]
100%

As a next step, examine the compound that follows.
### Prompt Given the entry CC(C)C(C)(C)C(=O)Nc1cc(-c2cnn(-c3c(C(F)(F)F)c(C(F)(F)C(F)(F)F)nn3C)c2)ccc1F [Example 1-065] , report its measured efficacy (kill in %).
### Response 90%

* * *

Parameter: efficacy (kill in %). Scope: all listed entries.
- System: Ctenocephalides felis
- PROTOCOL DESCRIPTION: Ctenocephalides felis oral test
- Assay type: in vivo
- TEST CONTEXT: application rate 100 ppm in citrated cattle blood; after 2 days
The response must be a number in % with no trailing unit.

### Prompt Given the entry Cn1nc(C(F)(F)C(F)(F)F)c(C(F)(F)F)c1-n1cc(-c2ccc(Cl)c(NC(=O)c3ncccc3Cl)c2)cn1 , report its measured efficacy (kill in %).
### Response 80

### Prompt Given the entry COc1cc(C(=O)Nc2cc(-c3cnn(-c4c(C(F)(F)F)c(C(F)(F)C(F)(F)F)nn4C)c3)ccc2F)ccc1F , report its measured efficacy (kill in %).
### Response 100

### Prompt Given the entry Cn1nc(C(F)(F)C(F)(F)F)c(C(F)(F)F)c1-n1cc(-c2ccc(F)c(NC(=O)c3ccc4c(c3)OC(F)(F)O4)c2)cn1 , report its measured efficacy (kill in %).
### Response 100

* * *

- Test system: Ctenocephalides felis
- PROTOCOL DESCRIPTION: Ctenocephalides felis oral test
- Type: in vivo
- TEST CONTEXT: application rate 100 ppm in citrated cattle blood; after 2 days
- Description: Ctenocephalides felis—Oral Test Solvent: dimethyl sulphoxide For the purpose of producing an appropriate active ingredient formulation, 10 mg of active ingredient are mixed with 0.5 ml of dimethyl sulphoxide. Dilution with citrated cattle blood gives the desired concentration. About 20 unfed adult cat fleas (Ctenocephalides felis) are placed into a chamber which is closed at the top and bottom with gauze. […] After 2 days, the kill in % is determined. […]
Parameter: efficacy (kill in %). Scope: all listed entries.
The response must be a number in % with no trailing unit.

### Prompt Given the entry Cn1nc(C(F)(F)C(F)(F)F)c(C(F)(F)F)c1-n1cc(-c2ccc(F)c(NC(=O)CC(C)(C)C)c2)cn1 , report its measured efficacy (kill in %).
### Response 95
